study.system: HIF-2α HIS TAG-PASB Domain (Homo sapiens, UniProt Q99814)
Construct: 100 nM HIF-2α HIS TAG-PASB Domain
Sequence (Q99814 240-350 limits assumed): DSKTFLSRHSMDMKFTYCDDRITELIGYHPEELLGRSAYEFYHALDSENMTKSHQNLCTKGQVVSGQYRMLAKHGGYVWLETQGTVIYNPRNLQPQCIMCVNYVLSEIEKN
measurement.description: HIF-2α Scintillation Proximity Assay (SPA)
Assay type: binding
measurement.context: read-out: Scintillation Proximity Assay IC50
readout.name: IC50

Below, each entry is followed by its recorded IC50 result.
{"columns": ["compound", "result"],
 "data": [
  ["O[C@H]1c2c(C(F)(F)F)ccc(OCCCF)c2[C@@H](F)C1(F)F [Compound 582]", "< 50 nM"],
  ["CS(=O)(=O)c1ccc(Oc2cc(F)cc(Br)c2)c2c1[C@H](O)C(F)(F)C2 [Compound 304]", "< 50 nM"],
  ["NC1CS(=O)(=O)c2ccc(Oc3cc(F)cc(F)c3)c(C(F)F)c21 (centres unmarked) [Compound 367]", "> 1000 nM"],
  ["CS(=O)(=O)c1ccc(OC[C@H]2C[C@@H]2C#N)c2c1[C@H](O)C(F)(F)[C@@H]2F [Compound 770]", "250 to 1000 nM"]
]}

Consider the record given below.
The compound O=S(=O)(c1ccc(OCC(F)F)c2c1[C@H](O)C(F)(F)C2)C(F)(F)F [Compound 571] showed IC50 equal to < 50 nM

====

study.system: HIF-2α HIS TAG-PASB Domain (Homo sapiens, UniProt Q99814)
Construct: 100 nM HIF-2α HIS TAG-PASB Domain
measurement.description: HIF-2α Scintillation Proximity Assay (SPA)
Format: binding
measurement.context: read-out: Scintillation Proximity Assay IC50
The compounds listed here are annotated with their IC50.

{"columns": ["compound", "IC50"],
 "data": [
  ["O=S(=O)(c1ccc(Nc2ccc(F)c(Cl)c2)c2c1C(O)CC2)C(F)(F)F (centres unmarked)", "> 1000 nM"],
  ["O=S(=O)(c1cc(C(F)(F)F)ccc1Oc1cc(F)cc(Cl)c1)C(F)(F)F", "> 1000 nM"],
  ["COCCOc1ccc(S(=O)(=O)C(F)(F)F)c2c1CC(F)(F)C2O (centres unmarked)", "250 to 1000 nM"],
  ["O[C@H]1c2c(C(F)(F)F)ccc(OCC(F)F)c2C[C@@H]1F", "50 to 249 nM"],
  ["NC1c2c(ccc(Oc3cc(F)cc(F)c3)c2C(F)F)S(=O)(=O)C1F (centres unmarked)", "> 1000 nM"],
  ["CCOc1ccc2c(c1C(F)F)[C@@H](O)C(F)(F)S2(=O)=O", "> 1000 nM"],
  ["Cc1cc(S(=O)(=O)C(F)F)ccc1Oc1cc(F)cc(C#N)c1", "50 to 249 nM"]
]}

# IC50 measured on HIF-2α HIS TAG-PASB Domain (Homo sapiens, UniProt Q99814) for item `C/C=C/c1c(S(=O)(=O)C(F)F)ccc(Oc2cc(F)cc(C#N)c2)c1C#N` = 250 to 1000 nM

====

study.system: HIF-2α HIS TAG-PASB Domain (Homo sapiens, UniProt Q99814)
Construct: 100 nM HIF-2α HIS TAG-PASB Domain
measurement.description: HIF-2α Scintillation Proximity Assay (SPA)
Format: binding
measurement.context: read-out: Scintillation Proximity Assay IC50
pIC50: −log10 of the molar value.
readout.name: pIC50

Below, each entry is followed by its recorded pIC50 result.
{"columns": ["molecule", "study.system", "result"],
 "data": [
  ["CS(=O)(=O)N1CCCC(Oc2ccc(S(=O)(=O)C(F)(F)F)c3c2CC(F)(F)C3O)C1 (centres unmarked) [Compound 628]", "HIF-2α HIS TAG-PASB Domain (Homo sapiens, UniProt Q99814)", "< 6.00"],
  ["N#Cc1cc(F)cc(Oc2ccc3c(c2C(F)F)C(=N)C(F)S3(=O)=O)c1 (centres unmarked) [Compound 373]", "HIF-2α HIS TAG-PASB Domain (Homo sapiens, UniProt Q99814)", "< 6.00"],
  ["OC1c2c(C(F)(F)F)ccc(OCC(F)F)c2CC1(F)F (centres unmarked) [Compound 686]", "HIF-2α HIS TAG-PASB Domain (Homo sapiens, UniProt Q99814)", "6.60 to 7.30"]
]}

The molecule O=C1CCc2c(Oc3cc(F)cc(Cl)c3)ccc(S(=O)(=O)C(F)F)c21 [Compound 18] showed pIC50 equal to 6.60 to 7.30

The molecule Cc1c(Oc2cc(F)cc(C#N)c2)ccc(S(=O)(=O)C(F)(F)F)c1C=O [Compound 145] showed pIC50 equal to 6.60 to 7.30

====

study.system: HIF-2α HIS TAG-PASB Domain (Homo sapiens)
Construct: 100 nM HIF-2α HIS TAG-PASB Domain
measurement.description: HIF-2α Scintillation Proximity Assay (SPA)
Format: binding
measurement.context: read-out: Scintillation Proximity Assay IC50
Method: The total assay volume was about 100 μL in the following configuration: 2 μL compound in 100% DMSO, 88 μL buffer with protein and probe and 10 μL of SPA beads. […] The percent inhibition was determined and IC50 values were calculated using the Dotmatics system based on the following equation: % inhibition=[(high control−sample)/(high control−low control)]×100.
readout.name: IC50

{"columns": ["compound", "IC50"],
 "data": [
  ["O=S(=O)(c1ccc(OC2CCCC2)c2c1C(O)CC2)C(F)(F)F (stereo not drawn)", "250 to 1000 nM"],
  ["O=S(=O)(CF)c1ccc(Oc2cc(F)cc(F)c2)c2c1C(O)CC2 (stereo not drawn)", "< 50 nM"]
]}

# IC50 measured on HIF-2α HIS TAG-PASB Domain (Homo sapiens) for item CNC(=O)COc1ccc(S(=O)(=O)C(F)(F)F)c2c1CC(F)(F)C2O (stereo not drawn) = > 1000 nM

====

study.system: HIF-2α HIS TAG-PASB Domain (Homo sapiens, UniProt Q99814)
Construct: 100 nM HIF-2α HIS TAG-PASB Domain
measurement.description: HIF-2α Scintillation Proximity Assay (SPA)
Assay type: binding
measurement.context: read-out: Scintillation Proximity Assay IC50
pIC50: −log10 of the molar value.
The molecules listed here are annotated with their pIC50.

Below, each entry is followed by its recorded pIC50 result.
{"columns": ["molecule", "result"],
 "data": [
  ["O=S(=O)(CF)c1ccc(Oc2cc(F)cc(F)c2)c2c1[C@H](O)CC2 [Compound 60]", "> 7.30"],
  ["N#Cc1cc(F)cc(Oc2ccc(S(=O)(=O)C(F)(F)F)c3c2CC(F)(F)[C@H]3NCCO)c1 [Compound 291]", "< 6.00"],
  ["CC(C)COc1ccc(S(=O)(=O)C(F)(F)F)c2c1CC(F)(F)[C@H]2O [Compound 709]", "> 7.30"],
  ["N#Cc1cc(F)cc(Oc2ccc(S(=N)(=O)C(F)(F)F)c3c2CCC3O)c1 (stereo not shown) [Compound 258]", "6.00 to 6.60"],
  ["CS(=O)(=O)c1ccc(Nc2cc(F)cc(C#N)c2)c2c1C(O)CC2 (stereo not shown) [Compound 498]", "< 6.00"],
  ["COCCCOc1ccc(S(=O)(=O)C(F)(F)F)c2c1CCC2O (stereo not shown) [Compound 600]", "< 6.00"],
  ["CC1(C)CC[C@H](O)[C@H](c2ccc(S(=O)(=O)C(F)(F)F)c3c2CC(F)(F)[C@H]3O)C1 [Compound 548]", "< 6.00"],
  ["N#Cc1cncc(Oc2ccc(S(=O)(=O)C(F)F)c3c2CC(F)(F)[C@H]3O)c1 [Compound 27]", "6.00 to 6.60"]
]}

The molecule CCc1ccc(S(=O)(=O)C(F)(F)F)c2c1CC(F)(F)C2O (stereo not shown) [Compound 516] showed pIC50 equal to < 6.00

The molecule N=S(=O)(c1ccc(Oc2cc(F)cc(Cl)c2)c(Br)c1Cl)C(F)(F)F (stereo not shown) [Compound 75] showed pIC50 equal to 6.60 to 7.30

====

The molecules listed here are annotated with their pIC50.
study.system: HIF-2α HIS TAG-PASB Domain (Homo sapiens, UniProt Q99814)
Construct: 100 nM HIF-2α HIS TAG-PASB Domain
measurement.description: HIF-2α Scintillation Proximity Assay (SPA)
Type: binding
measurement.context: read-out: Scintillation Proximity Assay IC50
Procedure: The total assay volume was about 100 μL in the following configuration: 2 μL compound in 100% DMSO, 88 μL buffer with protein and probe and 10 μL of SPA beads. […] The percent inhibition was determined and IC50 values were calculated using the Dotmatics system based on the following equation: % inhibition=[(high control−sample)/(high control−low control)]×100.
pIC50: −log10 of the molar value.

Below, each entry is followed by its recorded pIC50 result.
{"columns": ["molecule", "result"],
 "data": [
  ["CCOc1ccc(C#N)c2c1CC(F)(F)[C@H]2O [Compound 674]", "< 6.00"],
  ["O=S(=O)(c1ccc(O[C@H]2CCCOC2)c2c1[C@H](O)C(F)(F)C2)C(F)(F)F [Compound 731]", "> 7.30"],
  ["O=S(=O)(c1ccc(Oc2cc(F)cc(F)c2)c2c1CC(O)C2)C(F)F (stereo not drawn) [Compound 22]", "6.00 to 6.60"],
  ["CS(=O)(=NC#N)c1ccc(Oc2cc(F)cc(C#N)c2)c2c1[C@H](O)C(F)(F)C2 (single isomer, unassigned) [Compound 240]", "> 7.30"],
  ["CS(=O)(=O)N=S(=O)(CF)c1ccc(Oc2cc(F)cc(C#N)c2)c2c1[C@H](O)C(F)(F)C2 (stereo partly drawn) [Compound 284]", "< 6.00"],
  ["CN(C)Cc1c(S(=O)(=O)C(F)F)ccc(Oc2cc(F)cc(Cl)c2)c1C#N [Compound 36]", "< 6.00"],
  ["CC1(Oc2ccc(S(=O)(=O)C(F)(F)F)c3c2CC(F)(F)[C@H]3O)COC1 [Compound 785]", "< 6.00"],
  ["O=S1(=O)C[C@H](O)c2c1ccc(Oc1cccc(F)c1)c2Br [Compound 419]", "< 6.00"],
  ["O=S(=O)(c1ccc(CC(O)CO)c2c1C(O)C(F)(F)C2)C(F)(F)F (stereo not drawn) [Compound 521]", "< 6.00"],
  ["O=S(=O)(c1ccc(Oc2cc(F)cc(Cl)c2)c(Br)c1Cl)C(F)(F)F [Compound 179]", "> 7.30"]
]}

The molecule O=S(=O)(c1ccc(Oc2cc(F)c(F)c3[nH]ncc23)c2c1C(O)C(F)(F)C2)C(F)(F)F (stereo not drawn) [Compound 261] showed pIC50 equal to 6.00 to 6.60

The molecule O=S(=O)(c1ccc(Oc2ccc(Cl)c(Cl)c2)c(Br)c1)C(F)(F)F [Compound 169] showed pIC50 equal to < 6.00

The molecule O/N=C1/c2c(C(F)(F)F)ccc(OCC(F)F)c2[C@@H](F)C1(F)F [Compound 669] showed pIC50 equal to 6.60 to 7.30

The molecule CS(=O)(=O)c1ccc(Oc2cc(F)cc(Cl)c2)c2c1C(O)CC2CO (stereo not drawn) [Compound 281] showed pIC50 equal to 6.00 to 6.60

The molecule O=S(=O)(c1ccc(OC2CCOC2)c2c1C(O)CC2)C(F)(F)F (stereo not drawn) [Compound 596] showed pIC50 equal to < 6.00
